# credit: patent US20220064286A1

// Kd lookup, one value per entry
Molecular target: T1, human TIGIT protein (human, UniProt Q495A1 22-141, limits assumed)
T1 construct: Recombinant protein (Genentech) used in ELISA screening and as SPR analyte; also called TIGIT antigen
T1 sequence: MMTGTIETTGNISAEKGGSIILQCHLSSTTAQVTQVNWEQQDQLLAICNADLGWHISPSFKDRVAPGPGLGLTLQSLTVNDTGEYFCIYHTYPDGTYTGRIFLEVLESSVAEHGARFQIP
Assay: SPR, captured mAb
MEASURE: Kd (nM)

{"columns": ["BINDER", "MEASURE", "UNIT_SYMBOL", "OBSERVED_MEASUREMENT"],
 "data": [
  ["rat15C8 (antibody, V domains shown, SD rat-derived; rat V domains as FR/HVR pieces; also called 1.15C8; Chimeric 1.15C8) VH: EVQLQQSGPELQRPGASVKLSCKASGYTFTEHSIYWLKQRPKQSLEIIGRIDPKNGRTYFVDKFKNRATLTTNTSSNTAYMQLSSLTSEDTAIYFCARIDGFYFDFWGQGVMVTASS VL: NIHLTQSPSLLSASVGDRVTLSCKGSQNVNKYLVWYQQKLGEAPKLLIYSTDNLQSGIPSRFSGSGSGTDYTLTISSLQPEDAATYFCYQYNNGFTFGSGTKLEIK", "Kd", "nM", 0.03],
  ["rat7E7 (antibody, V domains shown, SD rat-derived; rat V domains as FR/HVR pieces; also called 1.7E7; Chimeric 1.7E7) VH: EVQLQQSGPELQRPGASVKLSCKATGYTFTEYSIYWVKQRPKQSLEIIGRIDPKNGRTYYVDKFKNRATLTADTSSNTAYMQLSSLTSEDTATYFCTRIYGFYFDFWGQGVMVTASS VL: NIHLTQSPSLLSASVGDRVTLSCKGSQNVNKYLVWYQQKLGEAPKLLIYNTDNLQSGIPSRFSGSGSGTDYTLTISSLQPEDAATYFCYQYNNGFTFGSGTKLEIK", "Kd", "nM", 0.03],
  ["h10A5.L1H1 (antibody, V domains shown, Humanized; FR/HVR pieces in order; also called h1.10A5.L1H1) VH: EVTLKESGPALVKPTQTLTLTCTFSGFSLTTYGMGVSWIRQPPGKALEWLASIWWNGNTYYNPSLRSRLTVTKDTSKNQAVLTMTNMDPVDTATYYCAHTGGAVITWFAYWGQGTLVTVSS VL: EIVMTQSPATLSVSPGERATLSCKASQSVGKNIAWYQQKPGQSPRLLIYYASNRYTGVPARFSGSGSGTEFTLTISSLQSEDFAVYYCQHIYNSPYPFGQGTKVEIK", "Kd", "nM", 0.52]
]}
